// provenance: ChEMBL document CHEMBL1201862

- Tested on: OVCAR-3
- Test Protocol: NCI tumour cell line growth inhibition, 48 h
The source made the active and inactive calls. Cut-off read from the data, not from the text of the source: active = GI50 up to about 1.1 µM and inactive = higher.
Outcome (select one): y (active), n (inactive)

Input: Hi, sorry to bother you, what did the test record for COc1ccc(C(=O)Nc2ccccc2C#N)cc1 ?
Output: n

Input: Called result for CC(C)(C)OC(=O)NC1CC2(C=C(Br)C(=O)C(Br)=C2)OC1=O (stereo unspecified)
Output: n

Input: Recorded test call requested for C[N+]1(CCNP(=S)(NCC[N+]2(C)Cc3c(ccc4c3OCO4)C3C2c2cc4c(cc2C[C@@H]3O)OCO4)NCC[N+]2(C)Cc3c(ccc4c3OCO4)C3C2c2cc4c(cc2C[C@@H]3O)OCO4)Cc2c(ccc3c2OCO3)C2C1c1cc3c(cc1C[C@H]2O)OCO3 (stereo partly specified)
Output: y

Input: # fetch the recorded call for COC(=O)c1cc2ccccc2c2nc3ccccc3c(Cl)c12 here
Output: n

Input: Field: outcome | Entry: N#CC(C#N)=C/C=C/c1c(Cl)cccc1Cl
Output: n

Input: What is the recorded call for this compound in the test? O=[N+]([O-])c1ccc2c3c1[C@H]1O[C@H]1c1cccc(c1-3)[C@@H]1O[C@H]21
Output: n
